Data provenance: the supplement of paper PMC6555819

Test system: PXR:RXRa (NR concentration 270 nM, RXRa partner concentration 90 nM)
Experiment: PBM binding z-score (relative to random genomic background probes); higher = stronger binding; sequences stand for … in GC…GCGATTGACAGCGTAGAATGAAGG
Class Fulfilled: PBM binding z-score at least 3. Class Not fulfilled: PBM binding z-score below 3.

{"primary-sequence": "TGTCAAATTTCAAAGGTAACGTAAGTATCCACAC", "category": "Not fulfilled"}
{"primary-sequence": "TCATCTAGGTAAAAGGTGAAAGTCGGTGTGGTAA", "category": "Not fulfilled"}
{"primary-sequence": "ATCTCTAGGTAAAAGTTCAGTTAATCCCGAGGAT", "category": "Not fulfilled"}
{"primary-sequence": "TCTATTAGTTGAAGGGGAACCGACGAGTCCGTTT", "category": "Not fulfilled"}
{"primary-sequence": "CCTAATGGGCCATCAGGTCATTGATATCAACGTT", "category": "Not fulfilled"}
{"primary-sequence": "TCATATAGGTAGAAGGTGAAAGTCGGTGTGGTAA", "category": "Not fulfilled"}
{"primary-sequence": "TTACCCAGGTGAAGGTCGTTGATCCCTCTGTAGA", "category": "Not fulfilled"}
{"primary-sequence": "CCTACTGGGTCATCAGGTCATTGATATCAACGTT", "category": "Fulfilled"}
{"primary-sequence": "CCGACTGGGGCAATGTTACCATAACGCACAGCCA", "category": "Not fulfilled"}
{"primary-sequence": "AGAATGAGGTTATTAAGATCAGGGAGTTGCGGTC", "category": "Not fulfilled"}
{"primary-sequence": "CCTGCTAGGTCAATGATCAGCTAAAGCAGCTCGC", "category": "Not fulfilled"}
{"primary-sequence": "TCTATTAGTTGATTAGGGAAACCGAAACAGCGGA", "category": "Not fulfilled"}
{"primary-sequence": "TCTCGGAGGACGCGAAGGTCAGAGCTTTCCAGAG", "category": "Not fulfilled"}
{"primary-sequence": "CCTATTAGTCGACCATAAGGGCAACCGAAGCTCG", "category": "Not fulfilled"}
{"primary-sequence": "CTCGAAAGGTCGGTTGAGGTGAGCATACGGATAA", "category": "Not fulfilled"}
{"primary-sequence": "ACTAGTTGGTCAGCTAAGGTCACACACAATTCGG", "category": "Fulfilled"}
{"primary-sequence": "CCTCGGAGGACAGCAGGAGGTCAGAGCTGCCAGA", "category": "Not fulfilled"}
{"primary-sequence": "TAGCGTAGGTCATGCGGGCCAGTATAGTGTCGGC", "category": "Not fulfilled"}
{"primary-sequence": "ATCTCTAGGTAAGACTCTGTTCAGTGAAGAACGC", "category": "Not fulfilled"}
{"primary-sequence": "ATATATAGGTTAGCTGGGGTCATTCAGACTAGGC", "category": "Fulfilled"}
{"primary-sequence": "ACTAGCAGGCCAAGTTTGGGTCACTCGAACAAAG", "category": "Not fulfilled"}
{"primary-sequence": "CCTCGGAGGACAACGGGAGGTCAGAGCTGCCAGA", "category": "Not fulfilled"}
{"primary-sequence": "TCTTGTAGATCAAAGGTGAAGAAAGCCGAAGCCT", "category": "Not fulfilled"}
{"primary-sequence": "TCTAGTTGGTCACGGAGGTCACTCACGACGGGTA", "category": "Fulfilled"}
{"primary-sequence": "ATCAAAAGGTCGTGAGGTGAGTATACAGAAAGGC", "category": "Fulfilled"}
{"primary-sequence": "ATCTCTATGTAAAAGTTCAGTGAATCCCGAGGAT", "category": "Not fulfilled"}
{"primary-sequence": "AGTCAAAGTTCACTGGGTAACGTAAGATTCAGCT", "category": "Fulfilled"}
{"primary-sequence": "ACAGACAGGTGGGTGAAGGTAACTCAGCTGGACG", "category": "Not fulfilled"}
{"primary-sequence": "AGAATGAGGTTATACGTAGATCAGAGAAGAAAGT", "category": "Not fulfilled"}
{"primary-sequence": "CGTCCAAGGTCATAGGTCAGTGAAGAGATGACGG", "category": "Fulfilled"}
{"primary-sequence": "TCTTGTAGATCAAGAGGAGGTTAAGAAAGATCGA", "category": "Not fulfilled"}
{"primary-sequence": "AATACAGGGTCATCGTAGGCCTGAGTACGCACAG", "category": "Fulfilled"}
{"primary-sequence": "TTTTGTAGATCAAAGGTTAAGAAAGCCGAAGCCT", "category": "Not fulfilled"}
{"primary-sequence": "ACAGACCGGTGATGAAGGTAACTCAGGCTATCAT", "category": "Not fulfilled"}
{"primary-sequence": "ATCTCTAGGTAACATGTTCAGTGAAAGAGAGGAC", "category": "Not fulfilled"}
{"primary-sequence": "CTACAAAGGTGAACAAGGTCGTTGATTACTATTC", "category": "Fulfilled"}
{"primary-sequence": "ATCGACAGGTCGTGAGGTGAGTATACAGAAAGGC", "category": "Not fulfilled"}
{"primary-sequence": "GTACCAAGGTGAATAGGTCGGTGATGAGTAGGCG", "category": "Not fulfilled"}
{"primary-sequence": "CAAGCTAGGTCAAGGTCAAAGTCGGTTTGTGCCA", "category": "Fulfilled"}
{"primary-sequence": "CCGCCTGGGGCAAAGGTTACCATACTCAGTACGA", "category": "Not fulfilled"}
{"primary-sequence": "TCTAGTTGGTTAAAGGTCACACACTCGAAATGCG", "category": "Fulfilled"}
{"primary-sequence": "CCTAGTTGGACAAGGTCACACACGCTATAGGTAC", "category": "Fulfilled"}
{"primary-sequence": "ATAGAAAGGTCGTGAGGTGAGTATACAGAAAGGC", "category": "Fulfilled"}
{"primary-sequence": "CGAACGAGGGTATGAGTTGATAGCAAATGCCGAT", "category": "Not fulfilled"}
{"primary-sequence": "AGAATGAGGTTATACGTAGATGAGGGAAGAAAGT", "category": "Not fulfilled"}
{"primary-sequence": "CCTACTGGGCCATTCAGAGGTCAGTGATCATATG", "category": "Not fulfilled"}
{"primary-sequence": "CGTCCAAGGTCAAGGTCTGTGAAAGAGACTCGAA", "category": "Fulfilled"}
{"primary-sequence": "GCAAACAGGTGAAACGCAGGTAACTCAGGGTGGC", "category": "Not fulfilled"}
{"primary-sequence": "CCTACTGGGCCACGAAAGGTCACTGATTCAGTGA", "category": "Fulfilled"}
{"primary-sequence": "ATATCTAGGTAAAGTTCAGTGAAAGATCGATAGA", "category": "Not fulfilled"}
{"primary-sequence": "CCTCCAAGGTCAAAGGTCAGTGAAGAGATGACGG", "category": "Fulfilled"}
